Reported IC50 by item:
# Tested on: 233499-124-R-J3-PDC complex spheroid growth
# Test: Anticancer human tumor 233499-124-R-J3-PDC patient-derived colon adenocarcinoma cell line growth inhibition [AhR]
# Condition Details: curve of first compound; second compound 0.316 µM

Nc1ncn(C2CC(O)C(CO)O2)c(=O)n1 (stereo not drawn) + CC(CO)NC(=O)c1cc(-c2ccc(Cl)cc2)nn(-c2cnn(C)c2)c1=O | > 1000 nM

Ask: Could you share which IC50 value was measured for CC[C@@]1(O)C(=O)OCc2c1cc1n(c2=O)Cc2cc3c(CN(C)C)c(O)ccc3nc2-1 + Cc1cncc(-c2nc(NCCc3c[nH]c4ccccc34)c3ncn(C(C)C)c3n2)c1 ?
Reply: > 100 nM

Ask: Same question for NS(=O)(=O)OCC1CC(n2ccc3c(NC4CCc5ccccc54)ncnc32)CC1O (stereo not drawn) + CC(CO)NC(=O)c1cc(-c2ccc(Cl)cc2)nn(-c2cnn(C)c2)c1=O please.
Reply: 196 nM

---

# Test system: 233499-124-R-J3-PDC complex spheroid growth
# Test: Anticancer human tumor 233499-124-R-J3-PDC cell line growth inhibition [AhR];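 note: spheroids exposed to agents for seven days before reading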
# Condition Details: second compound 0.1 µM; first compound 1 µM; stronger effect = lower value
Reported viability, T/C by item:
Answer with a number only, understood to be in %.

O=C(c1cc(Cc2n[nH]c(=O)c3ccccc23)ccc1F)N1CCN(C(=O)C2CC2)CC1 + Cc1ccccc1N=Nc1ccc(NC(=O)c2ccnn2C)c(C)c1 | 117
CC1COCCN1c1cc(-c2ccnn2C)c2ccnc(-c3ccn[nH]3)c2n1 (stereo not drawn) + CC(CO)NC(=O)c1cc(-c2ccc(Cl)cc2)nn(-c2cnn(C)c2)c1=O | 31.7

API: the following record is the query input.
Ask: Could you share which viability, T/C value was measured for COc1ccc([C@@H](O)c2cc(-c3ncnc4cc(N5CCOCC5)ccc34)c(F)cc2Cl)nn1 + CC(CO)NC(=O)c1cc(-c2ccc(Cl)cc2)nn(-c2cnn(C)c2)c1=O ?
Reply: 87

---

# Tested on: 233499-124-R-J3-PDC complex spheroid growth
# Test: Anticancer human tumor 233499-124-R-J3-PDC cell line growth inhibition [AhR];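 note: spheroids exposed to agents for seven days before reading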
# Condition Details: second compound 0.1 µM; first compound 10 µM; stronger effect = lower value
Test Readout: viability, T/C (%)
Answer with a number only, understood to be in %.

Ask: Could you share which viability, T/C value was measured for NS(=O)(=O)OCC1CC(n2ccc3c(NC4CCc5ccccc54)ncnc32)CC1O (stereo not drawn) + Cc1cncc(-c2nc(NCCc3c[nH]c4ccccc34)c3ncn(C(C)C)c3n2)c1 ?
Reply: 1.45

Ask: Same question for O=C(C=Cc1cccc(S(=O)(=O)Nc2ccccc2)c1)NO + Cc1cncc(-c2nc(NCCc3c[nH]c4ccccc34)c3ncn(C(C)C)c3n2)c1 please.
Reply: 9.95

Ask: Same question for O=C(C=Cc1cccc(S(=O)(=O)Nc2ccccc2)c1)NO + CC(CO)NC(=O)c1cc(-c2ccc(Cl)cc2)nn(-c2cnn(C)c2)c1=O please.
Reply: 6.36

---

# Test system: 233499-124-R-J3-PDC complex spheroid growth
# Test: Anticancer human tumor 233499-124-R-J3-PDC cell line growth inhibition [AhR];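 note: spheroids exposed to agents for seven days before reading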
# Condition Details: second compound 0.1 µM; first compound 1 µM; stronger effect = lower value
Reported viability, T/C by item:
Answer with a number only, understood to be in %.

Consider the reported viability, T/C for these compounds:
COc1cccc2c1C(=O)c1c(O)c3c(c(O)c1C2=O)CC(O)(C(=O)CO)CC3OC1CC(N)C(O)C(C)O1 (centres undefined) + CC(CO)NC(=O)c1cc(-c2ccc(Cl)cc2)nn(-c2cnn(C)c2)c1=O | 78.3
Nc1ccccc1NC(=O)c1ccc(CNC(=O)OCc2cccnc2)cc1 + Cc1ccccc1N=Nc1ccc(NC(=O)c2ccnn2C)c(C)c1 | 129
COc1cccc2c1C(=O)c1c(O)c3c(c(O)c1C2=O)CC(O)(C(=O)CO)CC3OC1CC(N)C(O)C(C)O1 (centres undefined) + Cc1ccccc1N=Nc1ccc(NC(=O)c2ccnn2C)c(C)c1 | 91.7
O=C(C=Cc1cccc(S(=O)(=O)Nc2ccccc2)c1)NO + Cc1ccccc1N=Nc1ccc(NC(=O)c2ccnn2C)c(C)c1 | 139

Ask: Could you share which viability, T/C value was measured for Nc1ccn(C2OC(CO)C(O)C2(F)F)c(=O)n1 (centres undefined) + Cc1ccccc1N=Nc1ccc(NC(=O)c2ccnn2C)c(C)c1 ?
Reply: 56.9

Ask: Same question for CC1COCCN1c1cc(-c2ccnn2C)c2ccnc(-c3ccn[nH]3)c2n1 (centres undefined) + Cc1ccccc1N=Nc1ccc(NC(=O)c2ccnn2C)c(C)c1 please.
Reply: 55.1

Ask: Same question for O=C(C=Cc1cccc(S(=O)(=O)Nc2ccccc2)c1)NO + CC(CO)NC(=O)c1cc(-c2ccc(Cl)cc2)nn(-c2cnn(C)c2)c1=O please.
Reply: 115

Ask: Same question for O=C(c1cc(Cc2n[nH]c(=O)c3ccccc23)ccc1F)N1CCN(C(=O)C2CC2)CC1 + Cc1cncc(-c2nc(NCCc3c[nH]c4ccccc34)c3ncn(C(C)C)c3n2)c1 please.
Reply: 102

Ask: Same question for COc1ccc([C@@H](O)c2cc(-c3ncnc4cc(N5CCOCC5)ccc34)c(F)cc2Cl)nn1 + Cc1ccccc1N=Nc1ccc(NC(=O)c2ccnn2C)c(C)c1 please.
Reply: 104

Ask: Same question for Nc1ncn(C2CC(O)C(CO)O2)c(=O)n1 (centres undefined) + CC(CO)NC(=O)c1cc(-c2ccc(Cl)cc2)nn(-c2cnn(C)c2)c1=O please.
Reply: 94.2

Ask: Same question for CC1COCCN1c1cc(C2(S(C)(=N)=O)CC2)nc(-c2ccnc3[nH]ccc23)n1 (centres undefined) + CC(CO)NC(=O)c1cc(-c2ccc(Cl)cc2)nn(-c2cnn(C)c2)c1=O please.
Reply: 91

Ask: Same question for O=C(C=Cc1cccc(S(=O)(=O)Nc2ccccc2)c1)NO + Cc1cncc(-c2nc(NCCc3c[nH]c4ccccc34)c3ncn(C(C)C)c3n2)c1 please.
Reply: 122

Ask: Same question for COc1cc(C2c3cc4c(cc3C(OC3OC5COC(C)OC5C(O)C3O)C3COC(=O)C23)OCO4)cc(OC)c1O (centres undefined) + Cc1ccccc1N=Nc1ccc(NC(=O)c2ccnn2C)c(C)c1 please.
Reply: 101

Ask: Same question for COc1cc(C2c3cc4c(cc3C(OC3OC5COC(C)OC5C(O)C3O)C3COC(=O)C23)OCO4)cc(OC)c1O (centres undefined) + Cc1cncc(-c2nc(NCCc3c[nH]c4ccccc34)c3ncn(C(C)C)c3n2)c1 please.
Reply: 95.4

Ask: Same question for Nc1ccn(C2OC(CO)C(O)C2(F)F)c(=O)n1 (centres undefined) + CC(CO)NC(=O)c1cc(-c2ccc(Cl)cc2)nn(-c2cnn(C)c2)c1=O please.
Reply: 30.1

Ask: Same question for Nc1ccccc1NC(=O)c1ccc(CNC(=O)OCc2cccnc2)cc1 + Cc1cncc(-c2nc(NCCc3c[nH]c4ccccc34)c3ncn(C(C)C)c3n2)c1 please.
Reply: 106

Ask: Same question for COc1cc(Nc2ncc3c(n2)-c2ccc(Cl)cc2C(c2c(F)cccc2OC)=NC3)ccc1C(=O)O + Cc1ccccc1N=Nc1ccc(NC(=O)c2ccnn2C)c(C)c1 please.
Reply: 98.5

Ask: Same question for Nc1ccn(C2OC(CO)C(O)C2(F)F)c(=O)n1 (centres undefined) + Cc1cncc(-c2nc(NCCc3c[nH]c4ccccc34)c3ncn(C(C)C)c3n2)c1 please.
Reply: 50.5

Ask: Same question for COc1cc(Nc2ncc3c(n2)-c2ccc(Cl)cc2C(c2c(F)cccc2OC)=NC3)ccc1C(=O)O + CC(CO)NC(=O)c1cc(-c2ccc(Cl)cc2)nn(-c2cnn(C)c2)c1=O please.
Reply: 91.4

Ask: Same question for COc1cc(Nc2ncc3c(n2)-c2ccc(Cl)cc2C(c2c(F)cccc2OC)=NC3)ccc1C(=O)O + Cc1cncc(-c2nc(NCCc3c[nH]c4ccccc34)c3ncn(C(C)C)c3n2)c1 please.
Reply: 100

Ask: Same question for NS(=O)(=O)OCC1CC(n2ccc3c(NC4CCc5ccccc54)ncnc32)CC1O (centres undefined) + Cc1cncc(-c2nc(NCCc3c[nH]c4ccccc34)c3ncn(C(C)C)c3n2)c1 please.
Reply: 16.1

Ask: Same question for CC1COCCN1c1cc(-c2ccnn2C)c2ccnc(-c3ccn[nH]3)c2n1 (centres undefined) + Cc1cncc(-c2nc(NCCc3c[nH]c4ccccc34)c3ncn(C(C)C)c3n2)c1 please.
Reply: 37.8

Ask: Same question for CC(C)c1c(-c2ccccc2)nc2c(C#N)c[nH]n2c1=O + CC(CO)NC(=O)c1cc(-c2ccc(Cl)cc2)nn(-c2cnn(C)c2)c1=O please.
Reply: 101

Ask: Same question for O=C(c1cc(Cc2n[nH]c(=O)c3ccccc23)ccc1F)N1CCN(C(=O)C2CC2)CC1 + CC(CO)NC(=O)c1cc(-c2ccc(Cl)cc2)nn(-c2cnn(C)c2)c1=O please.
Reply: 103
